tested.on: dimeric human IgG-lambda (Southern Biotech, Birmingham AL)
method: BLI (ForteBio), biotinylated ligand on sensor, 1:1 fit
pKd: −log10 of the molar value.
I'd appreciate it if you could supply pKd values for the items below.

binder | readout.value
affinity ligand SEQ ID NO: 79 (designed binder, biotinylated (AviTag system)) MGGGGSAAAGDEADRWADLGAAYAARGDYDRAIEYYQRALELDPNNAWAWWDLGVAYAARGDYDRAIEYYQRALELDPNNAVAWRRLGHAYAARGDYDRAIEYYQRALELDPNNELAREQLERARRARHGQAGQGGGSGLNDIFEAQKIEWHECHHHHHH | > 9.00
affinity ligand SEQ ID NO: 88 (designed binder, biotinylated (AviTag system)) MGGGGSAAAGDEAQCWENQGAAYAARGDYDRAIEYYERALELDPNNAWAWWELGVAYAARGDYDRAIEYYERALELDPDDATAWSRLGHAYAARGDYDRAIEYYERALELDPEDETARYLLEHARRARQGQAGQGGGSGLNDIFEAQKIEWHECHHHHHH | > 9.00

--- query ---
I have this binder here, affinity ligand SEQ ID NO: 87 (designed binder, biotinylated (AviTag system)) MGGGGSAAAGDEAQHWENQGAAYAARGDYDRAIEYYERALELDPNNAWAWWELGVAYAARGDYDRAIEYYERALELDPDDATVWSRLGHAYAARGDYDRAIEYYERALELDPEDETARYLLEHARRARQGQAGQGGGSGLNDIFEAQKIEWHECHHHHHH , and I need its recorded pKd.
> 9.00
